Hey, just so you know, these numbers are from PubChem BioAssay.

# test description: TLR3 IRF3 reporter activation blockers – cell-based, poly I:C stimulus, luciferase, 10K MLSCN set, primary screen (AID 602277)
# experimental context: HEK293-TLR3 RL24 IRF3 luciferase reporter, at 10 µM
Active and inactive are the calls of the source.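 The calls were made as follows: active = inhibition of the reporter signal at or above 50%; inactive = inhibition below 50%.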
Classes used: t (active), f (inactive)

                                   compound  class_label
0         CCOC(=O)N1CCN(c2cc3nccnc3cc2F)CC1            f
1  COc1cc(C2c3c(oc4c(C)cc(C)cc4c3=O)C(=O)N2Cc2cccnc2)cc(OC)c1OC (stereo not given)            f
2  COc1ccc(OC)c(-n2nnnc2SCC(=O)NCc2ccc3c(c2)OCO3)c1            f
3  CCC(C)NC(=O)CCNS(=O)(=O)c1ccc(Br)cc1 (stereo not given)            f
4  COc1ccccc1OCC(=O)Nc1ccc(S(=O)(=O)Nc2nc(C)cc(C)n2)cc1            f
5  O=C(COc1nnc2ccccn12)N1CCN(S(=O)(=O)c2ccccc2)CC1            t
6  CCn1cc(C(=O)NCC2CCCO2)c(=O)c2cc(S(=O)(=O)N(C)C)ccc21 (stereo not given)            f
7  O=C(Nc1cc(C(F)(F)F)ccc1N1CCCC1)c1ccc2c(c1)OCO2            f
8  O=C(CN1C(=O)c2ccccc2S1(=O)=O)Nc1ccc(S(=O)(=O)N2CCCCCC2)cc1            f
9  COc1cccc(NC(=O)N(CCCN2CCOCC2)C(C)c2cc3cccc(OC)c3o2)c1 (stereo not given)            f
